Target: S100A10 interaction with annexin A2 (Cy5-labeled S100A10 tracer / Cy3-labeled annexin A2(1−14) peptide) (Homo sapiens)
Sequence (P60903 whole entry): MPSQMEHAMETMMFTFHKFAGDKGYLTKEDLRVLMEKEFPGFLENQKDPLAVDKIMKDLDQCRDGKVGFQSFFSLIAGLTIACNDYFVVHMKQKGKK
Test: FRET-based competitive annexin A2−S100A10 binding assay
readout: inhibitory activity in FRET binding assay, in words

| compound | value reported |
| --- | --- |
| COCCCN1C(=O)C(O)=C(C(=O)c2cccnc2)C1c1ccc(C(F)(F)F)cc1 (stereo not shown) | completely inactive |
| C=CCN1C(=O)C(O)=C(C(=O)c2cccnc2)C1c1ccc(C(F)(F)F)cc1 (stereo not shown) | completely inactive |
